Cited source: paper PMC6468648

experimentalTarget: CDK2 (Homo sapiens, UniProt P24941)
Construct: recombinant CDK2/Cyclin A2 (SignalChem); with Cyclin A2
protocol: in vitro kinase assay, […]-ATP ([…] ATP), H1 histone substrate, SDS-PAGE autoradiography
measuredAttribute: IC50 (µM)

>  <molecule>
O=C(O)c1c(O)cc(O)cc1O [2,4,6-THBA, 2,4,6-trihydroxybenzoic acid]

>  <experimentalTarget>
CDK2 (Homo sapiens, UniProt P24941)

>  <unitAbbreviation>
µM

>  <measured>
262

$$$$

====

experimentalTarget: CDK1 (Homo sapiens, UniProt P06493)
Construct: recombinant CDK1/Cyclin B1 (SignalChem); with Cyclin B1
Sequence (P06493 whole entry): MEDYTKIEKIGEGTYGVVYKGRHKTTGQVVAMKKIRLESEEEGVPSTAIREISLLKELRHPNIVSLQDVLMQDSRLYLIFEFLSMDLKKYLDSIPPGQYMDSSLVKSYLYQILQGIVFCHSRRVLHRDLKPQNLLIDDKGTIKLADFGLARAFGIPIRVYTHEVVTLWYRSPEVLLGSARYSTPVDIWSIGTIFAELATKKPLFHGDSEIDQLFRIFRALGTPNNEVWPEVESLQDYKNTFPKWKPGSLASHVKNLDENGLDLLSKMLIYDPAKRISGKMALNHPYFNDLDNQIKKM
Sequence (P14635 whole entry partner): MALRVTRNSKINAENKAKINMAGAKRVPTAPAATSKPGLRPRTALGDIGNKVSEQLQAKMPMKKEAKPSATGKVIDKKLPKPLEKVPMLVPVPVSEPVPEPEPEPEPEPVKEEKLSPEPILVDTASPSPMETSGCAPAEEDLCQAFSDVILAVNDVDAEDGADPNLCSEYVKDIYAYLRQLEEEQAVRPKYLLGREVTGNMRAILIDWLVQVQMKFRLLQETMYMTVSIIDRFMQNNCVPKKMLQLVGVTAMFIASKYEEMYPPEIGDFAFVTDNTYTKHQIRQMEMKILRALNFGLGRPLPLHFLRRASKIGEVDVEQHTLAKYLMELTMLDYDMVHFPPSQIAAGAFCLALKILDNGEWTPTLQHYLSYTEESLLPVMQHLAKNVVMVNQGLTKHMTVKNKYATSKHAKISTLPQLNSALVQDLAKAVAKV
protocol: in vitro kinase assay, […]-ATP ([…] ATP), H1 histone substrate, SDS-PAGE autoradiography
measuredAttribute: IC50 (µM)

>  <compound>
O=C(O)c1c(O)cc(O)cc1O [2,4,6-THBA, 2,4,6-trihydroxybenzoic acid]

>  <measured>
580

$$$$

====

experimentalTarget: CDK4 (Homo sapiens)
Construct: recombinant CDK4/Cyclin D1 (SignalChem); with Cyclin D1
Sequence (P11802 2-303): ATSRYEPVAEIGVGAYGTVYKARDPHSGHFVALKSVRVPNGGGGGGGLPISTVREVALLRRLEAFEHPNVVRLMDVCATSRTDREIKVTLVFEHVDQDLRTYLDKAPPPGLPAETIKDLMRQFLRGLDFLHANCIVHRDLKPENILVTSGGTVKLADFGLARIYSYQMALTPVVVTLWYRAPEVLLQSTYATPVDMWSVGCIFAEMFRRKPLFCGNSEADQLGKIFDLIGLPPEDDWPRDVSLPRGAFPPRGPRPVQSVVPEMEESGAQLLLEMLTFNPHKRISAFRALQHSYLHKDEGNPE
Sequence (P24385 whole entry partner): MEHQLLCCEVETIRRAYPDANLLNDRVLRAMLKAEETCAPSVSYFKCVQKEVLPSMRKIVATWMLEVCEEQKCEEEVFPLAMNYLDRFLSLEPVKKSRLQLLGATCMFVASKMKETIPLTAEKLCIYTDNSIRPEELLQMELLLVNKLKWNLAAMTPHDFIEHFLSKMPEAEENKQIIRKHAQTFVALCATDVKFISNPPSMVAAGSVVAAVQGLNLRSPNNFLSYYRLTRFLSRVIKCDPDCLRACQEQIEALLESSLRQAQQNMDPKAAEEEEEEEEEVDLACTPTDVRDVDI
protocol: in vitro kinase assay, […]-ATP ([…] ATP), retinoblastoma (C-term) substrate, SDS-PAGE autoradiography
Type: biochemical
measuredAttribute: IC50 (µM)

>  <compound>
O=C(O)c1c(O)cc(O)cc1O [2,4,6-THBA, 2,4,6-trihydroxybenzoic acid]

>  <measuredAttribute>
IC50

>  <measured>
403

$$$$
